Reference source for all entries: patent US20260167721A1

System Under Test: T1, recombinant human CD3 epsilon/delta heterodimer (human, UniProt P07766 23-126; P04234 22-105)
T1 construct: Recombinant protein in solution (200-50 nM) in the Octet assay; also called hCD3 E/D; human CD3E/D
T1 sequence (P07766 23-126, stated change not applied, chain 1 of 2): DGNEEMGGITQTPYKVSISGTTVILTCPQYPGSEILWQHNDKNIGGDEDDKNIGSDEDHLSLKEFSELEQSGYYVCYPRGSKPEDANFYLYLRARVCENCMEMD
T1 sequence (P04234 22-105, stated change not applied, chain 2 of 2): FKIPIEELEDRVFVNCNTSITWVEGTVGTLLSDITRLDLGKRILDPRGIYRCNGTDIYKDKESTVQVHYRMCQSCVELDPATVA
Protocol Notes: Octet BLI, mAb on FAB2G sensor, hCD3 E/D 200-50 nM; R^2 1.00
Property Measured: koff (s⁻¹)
The figure you give is taken to be in s⁻¹; do not add the unit.

Need koff, item ABL-CD3-41 (antibody, V domains shown, Chimeric hybridoma mAb: human V, CH1, upper hinge; mouse middle hinge, CH2, CH3) VH: EVQLVESGGGLVKPGGSLRLSCAASGFTFSSYSMNWVRQAPGKGLEWVSSVNSRGSYIYYADSVKGRFTISRDNAKDSLYLQMNSLRADDTAVYYCARDRRELLLDYWGQGTLVTVSS VL: SYELTQPPSVSVSPGQTARITCSGDALPKKYAYWYQQKSGQAPVLVIYEDSKRPSGIPERFSGSSSGTMATLTISGAQVEDEADYYCYSTDSSGNHCWVFGGGTKLTVL 0.0395
